Test system: Plasmodium falciparum
Assay: GSK_TCMDC: Inhibition of Plasmodium falciparum 3D7 in whole red blood cells, using parasite LDH activity as an index of growth. Test compounds present at 2uM
Format: functional
MEASUREMENT_TYPE: Inhibition

[[record]]
molecule = "NC(=O)C1CCN(Cc2ccc(-c3ccc(-c4nc5cc(C(F)(F)F)ccc5[nH]4)cc3)cc2)CC1.O=C(O)C(F)(F)F"
test_result = "100%"

[[record]]
molecule = "Br.CC1(C)NC(N)=NC(=N)N1OCCSc1ccccc1"
test_result = "95%"

[[record]]
molecule = "COc1cc(Cc2cnc(N)nc2N)cc(CC(C)O)c1O (stereo unspecified)"
test_result = "93%"

[[record]]
molecule = "O=C(O)C(F)(F)F.O=S(=O)(NCCN1CCCC1)c1ccc(-c2cccc(CNCc3ccc(F)cc3)c2)s1"
test_result = "99%"

[[record]]
molecule = "O=C(Nc1cccc(F)c1)c1ccc(C(=O)NC2CCN(CC3CCCCC3)CC2)cc1.O=C(O)C(F)(F)F"
test_result = "96%"

[[record]]
molecule = "N#Cc1cc(C(=O)c2cc(Br)ccc2O)cn(-c2cc(Cl)cc(Cl)c2)c1=O"
test_result = "98%"


====

System: HepG2
Assay: GSK_TCMDC: Percent inhibition of human HepG2 cell line. Test compounds present at 10uM.
Format: functional
Criterion: Inhibition strictly less than 20%. Met: y. Not met: n.

[[record]]
compound = "CNC(=O)c1cc(S(=O)(=O)Nc2ccc(OC)cc2)cs1"
discrete_label = "y"

[[record]]
compound = "CC1CCC(NCc2c(O)ccc3ccccc23)CC1.Cl (stereo not drawn)"
discrete_label = "y"

[[record]]
compound = "COC(=O)c1ccc2nc(-c3cc(-c4cccc(-c5ccccc5)c4)cnc3N)[nH]c2c1"
discrete_label = "n"

[[record]]
compound = "O=C(Nc1ccc(Cn2ncc(N3CCCNCC3)c(Cl)c2=O)cc1)Nc1cc(F)cc(C(F)(F)F)c1.O=C(O)C(F)(F)F"
discrete_label = "n"

[[record]]
compound = "CN(C)c1ccc(C=C2SC(=N)N(c3nccs3)C2=O)cc1"
discrete_label = "n"

[[record]]
compound = "CCc1cn2c3c(cc(C(=O)N[C@@H](Cc4ccccc4)[C@H](O)CNCc4cccc(C)c4)cc13)N(C)S(=O)(=O)CC2.O=CO"
discrete_label = "y"

[[record]]
compound = "Cl.NC[C@H](CC1CCCCC1)NC(=O)c1ccc(-c2ccnc3[nH]ccc23)s1"
discrete_label = "n"

[[record]]
compound = "COc1cccc(CC(=O)N2CCC(n3c(C)nc4ccc(C)cc43)CC2)c1"
discrete_label = "y"

[[record]]
compound = "Fc1ccc(Nc2ccnc3cc(-c4ccc(CNCCN5CCOCC5)o4)ccc23)c(Cl)c1"
discrete_label = "n"

[[record]]
compound = "N#Cc1ccc(N[C@@H](CC2CCCCC2)C(=O)NCc2cc(F)c(F)cc2F)c2ccccc12.O=C(O)C(F)(F)F"
discrete_label = "y"

[[record]]
compound = "c1cncc(-c2cc(N3CCc4ccccc4C3)nc(-c3ccncc3)n2)c1"
discrete_label = "n"

[[record]]
compound = "Cc1cccc(OCC(=O)Nc2cccc(NC(=O)COc3cccc(C)c3)n2)c1"
discrete_label = "y"

[[record]]
compound = "Cc1cccc2nc(-c3cccc(-c4cccc(CNCc5ccc(S(C)(=O)=O)cc5)c4)c3)[nH]c12.O=C(O)C(F)(F)F"
discrete_label = "y"

[[record]]
compound = "Nc1nc(F)nc2nc[nH]c12"
discrete_label = "n"

[[record]]
compound = "CCN(CC)CCOc1ccc(Nc2ncc3cc(-c4c(Cl)cccc4Cl)c(=O)n(C)c3n2)cc1"
discrete_label = "n"

[[record]]
compound = "O=C(NCCc1ccccc1)N(Cc1ccccc1-c1cccc(CNCCc2ccccc2)c1)C1CCN(Cc2ccccc2)CC1.O=C(O)C(F)(F)F"
discrete_label = "n"

[[record]]
compound = "CC1(C)CN(CCC2CCC(NC(=O)/C=C/c3ccccc3F)CC2)Cc2ccc(C#N)cc21.Cl (stereo not drawn)"
discrete_label = "y"

[[record]]
compound = "COCCNCc1ccc(-c2ccc3c(Nc4ccc(F)cc4Cl)ccnc3c2)o1"
discrete_label = "n"

[[record]]
compound = "COc1ccc2nccc([C@@H](O)CN3CCC(NCc4nc5c(C#N)cccc5[nH]4)CC3)c2c1.O=C(O)C(=O)O"
discrete_label = "y"

[[record]]
compound = "O=C(CCNc1ccnc(NCCc2ccc(F)cc2)n1)Nc1ccccc1.O=C(O)C(F)(F)F"
discrete_label = "y"

[[record]]
compound = "Cl.N#Cc1ccc(NC(=O)c2ccc(Cc3ccc4c(c3)CCN(C3CCC3)CC4)cn2)cc1"
discrete_label = "n"

[[record]]
compound = "Nc1cccc(CNCc2cccc(-c3ccc(-c4nc5ccccc5[nH]4)cc3)c2)c1.O=C(O)C(F)(F)F"
discrete_label = "y"

[[record]]
compound = "CCCCCN1CCC(NS(=O)(=O)c2cccc(C(=O)Nc3cccc(C(F)(F)F)c3)c2)C1.O=C(O)C(F)(F)F (stereo not drawn)"
discrete_label = "n"


====

Tested on: Plasmodium falciparum
Test: GSK_TCMDC: Inhibition of Plasmodium falciparum Dd2 in whole red blood cells, using parasite LDH activity as an index of growth. Test compounds present at 2uM
Assay type: functional
Inhibition reference
MEASUREMENT_TYPE: Inhibition (%)

[[record]]
test_smiles = "Cc1ccc(NC(=O)c2ccc(N3CCN(c4ccncc4)CC3)cn2)cc1F.O=C(O)C(F)(F)F"
measurement_type = "Inhibition"
units_text = "%"
test_result = 77

[[record]]
test_smiles = "O=C(CSc1nccn1Cc1ccco1)Nc1cc(C(F)(F)F)ccc1Cl"
measurement_type = "Inhibition"
units_text = "%"
test_result = 66

[[record]]
test_smiles = "COc1ccc(S(=O)(=O)NCCC2CCN(CCCCCNC(=O)C=Cc3ccc(Cl)c(Cl)c3)CC2)cc1"
measurement_type = "Inhibition"
units_text = "%"
test_result = 0

[[record]]
test_smiles = "O=C(Nc1ccccc1O)c1ccc(S(=O)(=O)c2ccc(Cl)cc2)cc1"
measurement_type = "Inhibition"
units_text = "%"
test_result = 85

[[record]]
test_smiles = "CCCCN1C(=N)NC(c2ccccc2)(c2ccccc2)C1=O"
measurement_type = "Inhibition"
units_text = "%"
test_result = 34

[[record]]
test_smiles = "C[C@@H](CC1CCCCC1)OC(=O)N(C)[C@H]1CCN(C#N)C1"
measurement_type = "Inhibition"
units_text = "%"
test_result = 62


====

System: Plasmodium falciparum
Assay: GSK_TCMDC: Inhibition of Plasmodium falciparum 3D7 in whole red blood cells, using parasite LDH activity as an index of growth. Test compounds present at 2uM
Type: functional
MEASUREMENT_TYPE: Inhibition (%)

[[record]]
compound = "Cc1ccc(NC(=O)c2cccc(CN3CCCN(CC4CCCCC4)CC3)c2)cc1F.O=C(O)C(F)(F)F"
test_system = "Plasmodium falciparum"
measurement_type = "Inhibition"
units_text = "%"
test_result = 85

[[record]]
compound = "O=S(=O)(c1csc2ccccc12)N(CCC(O)(C(F)(F)F)C(F)(F)F)Cc1cccc(O)c1"
test_system = "Plasmodium falciparum"
measurement_type = "Inhibition"
units_text = "%"
test_result = 100

[[record]]
compound = "COc1cccc(-c2[nH]c3ccccc3c2CN2CCC(c3c(C)cccc3C)CC2)c1"
test_system = "Plasmodium falciparum"
measurement_type = "Inhibition"
units_text = "%"
test_result = 99

[[record]]
compound = "Cc1cccc2nc(-c3cccc(-c4ccc(CNCc5ccccc5)cc4)c3)[nH]c12.O=C(O)C(F)(F)F"
test_system = "Plasmodium falciparum"
measurement_type = "Inhibition"
units_text = "%"
test_result = 99

[[record]]
compound = "CN(C)c1ccc(CN2CCC(NC(=O)c3ccc(-c4ccccc4F)s3)CC2)cc1.O=C(O)C(F)(F)F"
test_system = "Plasmodium falciparum"
measurement_type = "Inhibition"
units_text = "%"
test_result = 86

[[record]]
compound = "CCc1ccc(CN2CCCCC(NC(=O)c3cc(-c4ccccc4F)cs3)C2)cc1.O=C(O)C(F)(F)F (stereo unspecified)"
test_system = "Plasmodium falciparum"
measurement_type = "Inhibition"
units_text = "%"
test_result = 87


====

Test system: Plasmodium falciparum
Assay: GSK_TCMDC: Inhibition of Plasmodium falciparum 3D7 in whole red blood cells, using parasite LDH activity as an index of growth. Test compounds present at 2uM
Format: functional
MEASUREMENT_TYPE: Inhibition (%)

[[record]]
compound = "O=C(Nc1cc(Oc2ccc(O)cc2)cc([N+](=O)[O-])c1)c1cc(-c2ccc(F)cc2)no1"
test_system = "Plasmodium falciparum"
test_result = 88

[[record]]
compound = "CC(C)(CNC(=O)[C@@H]1CCCN(CCOc2ccc(F)c(F)c2)C1)c1nc(-c2ccc(Cl)c(O)c2)c(-c2ccncc2)[nH]1.Cl"
test_system = "Plasmodium falciparum"
test_result = 100

[[record]]
compound = "CC1(C)C(=O)Nc2ccc3c(c21)CC1SC(=O)NN=C31 (configuration not stated)"
test_system = "Plasmodium falciparum"
test_result = 96

[[record]]
compound = "c1ccc(COc2ccc(C3CCCCC3)cc2)nc1"
test_system = "Plasmodium falciparum"
test_result = 99

[[record]]
compound = "Cc1oc(-c2cccc(Oc3ccccc3)c2)nc1CN(Cc1cnn(C)c1)C(C)C"
test_system = "Plasmodium falciparum"
test_result = 89

[[record]]
compound = "CN(C)CCOc1cc(NC(=O)Nc2ccc(-c3ccccc3)cc2Cl)ccc1I"
test_system = "Plasmodium falciparum"
test_result = 100

[[record]]
compound = "CCOC(=O)c1ccc(-c2cnoc2-c2cc(CC)c(OC)cc2O)o1"
test_system = "Plasmodium falciparum"
test_result = 100

[[record]]
compound = "O=C(O)C(F)(F)F.OCC1CCN(Cc2ccc(-c3ccc(-c4nc5cc(C(F)(F)F)ccc5[nH]4)s3)cc2)CC1"
test_system = "Plasmodium falciparum"
test_result = 100

[[record]]
compound = "CNC(=O)CC(=O)NCCc1ccc(Cl)cc1"
test_system = "Plasmodium falciparum"
test_result = 99

[[record]]
compound = "CC(=O)Nc1ccc(C(=O)Nc2cccc(-c3cccc(-c4nc5ccccc5[nH]4)c3)c2)cn1"
test_system = "Plasmodium falciparum"
test_result = 100

[[record]]
compound = "COc1cccc(-c2cc(C(F)(F)F)n3ncc(C(=O)Nc4cc(Cl)ccc4O)c3n2)c1"
test_system = "Plasmodium falciparum"
test_result = 99

[[record]]
compound = "Cc1cc(N[C@@H](Cc2ccccc2)C(=O)Nc2ccccc2)nc(NCCc2ccc(F)cc2)n1.O=C(O)C(F)(F)F"
test_system = "Plasmodium falciparum"
test_result = 96

[[record]]
compound = "Cl.NC1CCN(CCc2ccc(NS(=O)(=O)c3cccc4ccccc34)cc2)CC1"
test_system = "Plasmodium falciparum"
test_result = 94

[[record]]
compound = "Cc1cc(Nc2ccc(Cl)cc2)n2nc(C(F)(F)F)nc2n1"
test_system = "Plasmodium falciparum"
test_result = 97

[[record]]
compound = "O=C(NCCCCN1CCC(c2ccc3c(c2O)CCCC3)CC1)c1ccc(-c2ccc(Cl)cc2)cc1"
test_system = "Plasmodium falciparum"
test_result = 98

[[record]]
compound = "Cc1cccc(C(=O)NCCCN2CCC(NC(=O)/C=C/c3ccc(Cl)c(Cl)c3)CC2)c1.O=C(O)C(F)(F)F"
test_system = "Plasmodium falciparum"
test_result = 98

[[record]]
compound = "CN1CCN(CCCN(Cc2ccc(-c3cccc(CNC4CCCC4)c3)cc2)C(=O)/C=C/c2ccccc2)CC1.O=C(O)C(F)(F)F"
test_system = "Plasmodium falciparum"
test_result = 100

